# Test system: HT-29
# test-summary: NCI tumour cell line growth inhibition, 48 h
Activity calls are given as the source filed them. Rule as the data show it: active = GI50 up to about 1.1 µM and inactive = higher.
Pick from active, inactive when you respond.

Can you look up the reported call for Brc1ccc(C2CC(c3cccc4ccccc34)=Nc3ccccc3S2)cc1 (stereo not drawn) for me? inactive

Called result for "CC1(C)N=C(N)N=C(N)N1c1ccc(Cl)cc1" inactive

Please share the test call associated with "Clc1cc2nc[nH]c2cc1Cl" . inactive

Assay result, entry "Oc1cccc2cc(Br)cnc12" — outcome? inactive

# lookup: test call for CCN1CCC(O)(c2ccc(Oc3ccc(F)cc3)cc2)C(C(=O)c2ccc(Oc3ccc(F)cc3)cc2)C1 (stereo not drawn) inactive

// return assay outcome for "COc1ccc(/C=[N+](\[O-])[C@H](COCc2ccccc2)c2ccccc2)cc1" inactive

Test call for this compound, please: "c1ccc(Cc2nc(Cc3n[nH]c(Cc4ccccc4)n3)n[nH]2)cc1" inactive

Fill in: this test's call for Cc1cc(O)c2c(c1)C(O)(c1ccc3c(c1O)C(=O)c1c(O)cc(C)cc1C3(O)C1OC(CO)C(O)C(O)C1O)c1cccc(O)c1C2=O (stereo not drawn) is ___ inactive

Hi, sorry to bother you, what did the test record for "COc1ccc2c3c(c(=O)n(C)c2c1OC)C=CC(C)(C)O3" ? inactive

Call for entry COc1ccc(N2C(=O)C3c4[nH]c5ccc(OCc6ccccc6)cc5c4C4CCC(C(C)(C)C)CC4C3C2=O)cc1 (stereo not drawn) : inactive

Hey, what did the test say about CC(NNC(=O)c1cc[n+]([BH2-]C#N)cc1)c1ccc(F)cc1 (stereo not drawn) ? inactive

Record request — test call for C=C(Cl)C(Cl)(CBr)CCC(Cl)C(C)(C)Cl (stereo not drawn) active

Recorded call for CC1CC(Nc2ccc(Br)cc2)N(C(=O)c2ccc(Br)cc2)O1 (stereo not drawn) ? inactive

Kindly provide the recorded test outcome for the following compound: O=C1N2CCN=C2c2ccccc2C1(O)c1ccccc1 (stereo not drawn) inactive

Given O=C(CCCCCCCCC(=O)NN1C(=O)/C(=C\c2ccc(O)c(O)c2)SC1c1c(O)ccc2ccccc12)NN1C(=O)C(=Cc2ccc(O)c(O)c2)SC1c1c(O)ccc2ccccc12 (stereo not drawn) , state the outcome it received in this test. inactive

What is the recorded call for this compound in the test? "Sc1nn2c(COc3cc(Cl)c(OCc4nnc5sc(S)nn45)cc3Cl)nnc2s1" inactive

Which outcome did this test record for the compound CC[C@@H](O)C[C@H]1CCC[C@@]2(C[C@@H]3OC(=O)/C=C/[C@@](C)(O)[C@@H](O)[C@H](C)[C@@H](O)[C@H](OC4CCC(N(C)C)C(C)O4)[C@@H](O)[C@](C)(O)CCCCC/C=C/[C@@H]4CC(C)(C)O[C@@]4(O)C[C@H](O2)[C@H]3C)O1 (stereo partly drawn) ? inactive

Could you kindly confirm the outcome this assay logged for "CCOC(=O)N1C=CC(=C2C(=C3C=CN(C(=O)OCC)C=C3)C(=C3C=CN(C(=O)OCC)C=C3)C2=C2C=CN(C(=O)OCC)C=C2)C=C1" ? inactive
